- tgt: T1, monkey MSLN full-length protein (NCBI: XP_028696439.1) expressed on HEK293T-monkey MSLN cells (monkey)
- T1 construct: Whole encoded precursor
- T1 chain: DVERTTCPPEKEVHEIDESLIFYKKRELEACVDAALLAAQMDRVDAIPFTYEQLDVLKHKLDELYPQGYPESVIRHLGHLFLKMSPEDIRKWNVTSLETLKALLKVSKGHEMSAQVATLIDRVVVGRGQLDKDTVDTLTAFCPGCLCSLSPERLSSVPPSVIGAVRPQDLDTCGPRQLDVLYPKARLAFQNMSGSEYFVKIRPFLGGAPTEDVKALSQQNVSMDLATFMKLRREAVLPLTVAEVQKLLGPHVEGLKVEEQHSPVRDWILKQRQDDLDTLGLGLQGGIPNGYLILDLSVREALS
- procedure summary: FACS on HEK293T-monkey MSLN cells
result type: pEC50
In textbook form, pEC50 equals minus log to base ten of the concentration in mol/L.

binder	pEC50
S009-F2.39.3 (antibody, human IgG1, kappa, V domains shown, human-murine chimeric antibody, human IgG1/kappa constant regions) VH: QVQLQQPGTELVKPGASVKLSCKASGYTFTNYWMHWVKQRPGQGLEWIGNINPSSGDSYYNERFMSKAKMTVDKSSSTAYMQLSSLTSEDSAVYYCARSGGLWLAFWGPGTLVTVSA VL: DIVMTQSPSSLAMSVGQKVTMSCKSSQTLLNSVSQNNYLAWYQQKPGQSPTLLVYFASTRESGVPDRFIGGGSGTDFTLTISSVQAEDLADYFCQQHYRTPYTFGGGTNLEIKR	8.38

Entry S009-F2.16.10 (antibody, human IgG1, kappa, V domains shown, human-murine chimeric antibody, human IgG1/kappa constant regions) VH: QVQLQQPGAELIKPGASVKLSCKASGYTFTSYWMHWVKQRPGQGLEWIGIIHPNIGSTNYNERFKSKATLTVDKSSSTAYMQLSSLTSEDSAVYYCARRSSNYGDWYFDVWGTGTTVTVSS VL: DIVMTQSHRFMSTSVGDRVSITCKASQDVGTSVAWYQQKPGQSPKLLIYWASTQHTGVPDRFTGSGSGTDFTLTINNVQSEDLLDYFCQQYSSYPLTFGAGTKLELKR needs its pEC50 filled in; supply it.
9.52
